TARGET ENTITY: UniProt P06239
Sequence (P06239 whole entry): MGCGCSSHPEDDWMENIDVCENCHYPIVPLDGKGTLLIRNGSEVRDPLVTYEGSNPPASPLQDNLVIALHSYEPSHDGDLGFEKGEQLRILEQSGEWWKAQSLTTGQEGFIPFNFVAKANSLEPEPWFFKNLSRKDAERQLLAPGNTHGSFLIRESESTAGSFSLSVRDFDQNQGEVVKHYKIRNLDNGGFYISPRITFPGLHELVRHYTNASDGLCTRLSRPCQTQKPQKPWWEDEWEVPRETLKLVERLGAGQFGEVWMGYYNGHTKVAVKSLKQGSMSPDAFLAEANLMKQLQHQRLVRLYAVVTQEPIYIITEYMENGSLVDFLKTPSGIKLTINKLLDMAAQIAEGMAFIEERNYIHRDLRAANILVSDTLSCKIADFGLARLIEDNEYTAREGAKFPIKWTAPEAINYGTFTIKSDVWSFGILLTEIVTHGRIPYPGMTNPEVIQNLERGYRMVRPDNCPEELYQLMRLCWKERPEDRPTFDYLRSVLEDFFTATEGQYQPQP
EXPERIMENT NOTES: KINATIV assay
Format: cell-based
CONDITION SUMMARY: 1 μM, 90 minutes, BCWM.1 cells
EXPERIMENTAL READOUT: % change of MS signal compared to control sample (%)
Report the figure in % without appending any unit label.

- COMPOUND: "C=CC(=O)N1CCC(CNc2nccc(Nc3ncc(C(=O)Nc4c(C)cccc4C)s3)n2)C1 (racemic)"
  VALUE: 94.8
- COMPOUND: "C=CC(=O)N1CCCCC(Nc2nccc(Nc3ncc(C(=O)Nc4c(C)cccc4C)s3)n2)C1 (stereo not shown)"
  VALUE: 96.5
- COMPOUND: "C=CC(=O)N1CC[C@@H](Nc2nccc(Nc3ncc(C(=O)Nc4c(C)cccc4C)s3)n2)C1"
  VALUE: 96.1

Now consider the entry below.
Record C=CC(=O)N1CCC(Cn2ccc(Nc3ncc(C(=O)Nc4c(C)cccc4Cl)s3)n2)C1 (stereo not shown) / UniProt P06239, % change of MS signal compared to control sample recorded as 92.4

Attribution: patent US10844077B2
